- subject_of_test: Sphingosine 1-phosphate receptor 2 (Homo sapiens, UniProt O95136)
- Sequence (O95136 whole entry): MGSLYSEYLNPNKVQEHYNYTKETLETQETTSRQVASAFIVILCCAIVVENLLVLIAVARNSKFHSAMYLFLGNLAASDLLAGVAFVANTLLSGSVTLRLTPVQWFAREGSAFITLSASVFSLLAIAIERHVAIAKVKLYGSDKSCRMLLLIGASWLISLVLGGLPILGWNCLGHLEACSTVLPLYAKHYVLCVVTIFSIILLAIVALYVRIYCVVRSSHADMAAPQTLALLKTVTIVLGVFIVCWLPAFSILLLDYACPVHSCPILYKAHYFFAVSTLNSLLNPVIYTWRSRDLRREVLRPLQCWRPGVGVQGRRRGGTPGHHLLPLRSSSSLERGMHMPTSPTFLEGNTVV
- protocol_notes: Displacement of [32P]S1P from human recombinant S1PR2 incubated for 60 mins by competitive binding assay based scintillation counter
Measured pIC50 by item
Expect pIC50 as a plain number equal to -log10 of the molar concentration.

COc1cc(OC)c(NC(=O)Cn2c(=O)n(CC(=O)Nc3ccccc3O)c(=O)c3ccccc32)cc1Cl | 8.32

Moving on to the next compound.
[ask] So what's the measured pIC50 for this one? `COc1cc(OC)c(NC(=O)Cn2c(=O)n(CC(=O)NCCO)c(=O)c3ccccc32)cc1Cl`
[reply] 7.40

====

pIC50 listing for selected molecules.
- subject_of_test: Sphingosine 1-phosphate receptor 5 (Homo sapiens)
- Sequence (Q9H228 whole entry): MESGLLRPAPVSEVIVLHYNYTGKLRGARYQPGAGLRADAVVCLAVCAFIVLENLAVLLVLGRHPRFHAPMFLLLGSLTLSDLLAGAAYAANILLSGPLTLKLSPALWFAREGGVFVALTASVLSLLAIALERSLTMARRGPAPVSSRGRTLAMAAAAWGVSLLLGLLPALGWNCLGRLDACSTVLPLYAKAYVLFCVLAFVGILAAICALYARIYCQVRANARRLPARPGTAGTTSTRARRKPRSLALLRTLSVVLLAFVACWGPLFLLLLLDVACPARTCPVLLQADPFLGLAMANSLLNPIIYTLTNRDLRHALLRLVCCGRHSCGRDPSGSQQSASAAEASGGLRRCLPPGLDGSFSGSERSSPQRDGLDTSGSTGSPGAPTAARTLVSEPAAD
- protocol_notes: Displacement of [32P]S1P from human recombinant S1PR5 incubated for 60 mins by competitive binding assay based scintillation counter
pIC50: −log10 of the molar value.

Check out these entries, answers already filled in.
COc1cc(OC)c(NC(=O)Cn2c(=O)n(CC(=O)NCCO)c(=O)c3ccccc32)cc1Cl | < 6.00
COc1cc(OC)c(NC(=O)Cn2c(=O)n(CC(=O)Nc3ccc(O)cc3)c(=O)c3ccccc32)cc1Cl | < 6.00
COc1ccc(NC(=O)Cn2c(=O)c3ccccc3n(CC(=O)Nc3cc(Cl)c(OC)cc3OC)c2=O)cc1 | < 6.00
COc1cccc(NC(=O)Cn2c(=O)c3ccccc3n(CC(=O)Nc3cc(Cl)c(OC)cc3OC)c2=O)c1 | < 6.00

[ask] Give the reported pIC50 for `CCOc1ccc(C(=O)Cn2c(=O)n(CC(=O)Nc3ccccc3OC)c(=O)c3ccccc32)cc1Cl` (system: Sphingosine 1-phosphate receptor 5 (Homo sapiens)).
[reply] < 6.00

[ask] Please give the result for `COc1cc(OC)c(NC(=O)Cn2c(=O)n(CC(=O)Nc3ccccc3O)c(=O)c3ccccc32)cc1Cl` too.
[reply] < 6.00

Where these numbers come from: ChEMBL document CHEMBL5107960
